The values you see were collected from paper PMC7504417.

# target.under.test: mu opioid receptor peptide Mu OPR 211–226 (Homo sapiens, UniProt P35372)
# Construct: Mu OPR 211–226; purchased RS Synthesis (Louisville, KY, USA); host or cells: chemical synthesis
# assay.method.text: biochemical
# Type: binding
Catalogue of molecules with associated Kd
result.type: Kd (µM)

>>> df
                                   molecule  result_type  unit_tag  observed
0  O=C1OC(C(O)CO)C(=O)C1=O (centres unmarked) [Dehydro Asc, dehydroascorbic acid]           Kd        µM       150
1  CNC[C@H](O)c1cccc(O)c1 [Phenylephrine, phenylephrine]           Kd        µM       150
